- testTarget: Fc-fusion protein of human carbonic anhydrase IX (human, UniProt Q16790 38-414)
- assayComment: SPR, captured hCAIX-Fc; pKD category A: >8.0
Starred links: 1 amine or outer side, 2 acyl side, 3 side chain; linkers in the order of their positions; H or OH if unused. Positions of bridges follow the written chain, without caps; N, C: chain ends. Non-standard residues stand in square brackets, D forms with d. Primed or numbered codes have the meaning given here. *: point of attachment. APAc″ = 2-(4-(amino)piperidin-1-yl)acetic acid, NC1CCN(CC(=O)*)CC1; DOTA = O=C(O)CN1CCN(CC(=O)O)CCN(CC(=O)*)CCN(CC(=O)O)CC1; mXylylene = c1cc(C[*:1])cc(C[*:2])c1; Cha = N[C@@H](CC1CCCCC1)C(=O)O; NMeD = CN[C@@H](CC(=O)O)C(=O)O; APAc = not defined here; Dap = NC[C@H](N)C(=O)O
# Lookup of reported pKD keyed by entry

{"binder": "{DOTA}-VDCE[dP]DWLTW[Dap]C-NH2 (lactam 2-11; linker 3-12 via mXylylene; SMILES CC(C)C[C@@H]1NC(=O)[C@H](Cc2c[nH]c3ccccc23)NC(=O)[C@H](CC(=O)O)NC(=O)[C@H]2CCCN2C(=O)[C@H](CCC(=O)O)NC(=O)[C@@H]2CSCc3cccc(c3)CSC[C@@H](C(N)=O)NC(=O)[C@H](CNC(=O)C[C@H](NC(=O)[C@@H](NC(=O)CN3CCN(CC(=O)O)CCN(CC(=O)O)CCN(CC(=O)O)CC3)C(C)C)C(=O)N2)NC(=O)[C@H](Cc2c[nH]c3ccccc23)NC(=O)[C@H]([C@@H](C)O)NC1=O) [3BP-4264]", "pKD": "> 8 pkd"}
{"binder": "{DOTA-APAc″}-VYCE[dP]DW[Cha]TWSC-NH2 (linker 3-12 via mXylylene) [3BP-4143]", "pKD": "> 8 pkd"}
{"binder": "{DOTA-APAc}-VYCE[dP][NMeD]WLTWSC-NH2 (linker 3-12 via mXylylene; reading uncertain) [3BP-4107]", "pKD": "> 8 pkd"}
